Taken from the Human Domainome abundance scans (Beltran et al. 2025).

B1: Transcriptional repressor p66-beta, residues 415 to 455; numbered along this chain, Q8WXI9 (parent)
chain: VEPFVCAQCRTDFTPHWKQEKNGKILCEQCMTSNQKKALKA

Variants of: B1
Test: abundance fitness (aPCA) (normalised: wild type 0, dead -1); higher = more abundant; growth selection in yeast, the domain comes from the species named
Conditions: Homo sapiens
Values of abundance fitness greater than or equal to 0.02 map to class 1; values below map to class 0.

In [3]: df
Out[3]:
    mutation_notation  label_class
 0               K36R      class 0
 1                Q8P      class 0
 2               T32R      class 0
 3               H16P      class 0
 4               H16K      class 0
 5               L26K      class 0
 6               D12F      class 0
 7               R10P      class 1
 8               K21A      class 0
 9                C6R      class 0
10                V5G      class 0
11               I25F      class 0
12                V1F      class 0
13               S33H      class 1
14               W17L      class 1
15               K37H      class 0
16               L26E      class 0
17               C30D      class 0
18               H16A      class 0
19                Q8T      class 1
20               G23H      class 1
21               T32A      class 0
22                C6F      class 0
23               G23A      class 1
24                C6Y      class 0
25               E20V      class 0
26                Q8A      class 1
27                C6S      class 0
28                V5Q      class 1
29               T14Q      class 0
30               R10F      class 1
31               K36T      class 0
32               R10Y      class 1
33               I25S      class 0
34               T14P      class 1
35               K40R      class 1
36               E20T      class 0
37               Q19A      class 1
38               M31Y      class 1
39               I25M      class 0
40                A7P      class 0
41               Q35D      class 0
42               N22P      class 1
43               P15T      class 1
44               A38Y      class 0
